Each entry below carries its recorded IC50.
biological target: Glutamate NMDA receptor; assay: Negative allosteric modulator activity at NMDA receptor in Wistar rat hippocampal CA1 neuronal membrane assessed as inhibition of NMDA and glycine induced current response by whole-cell patch clamp technique; format: cell membranes; details: hippocampal ca1 neurone
READOUT NAME: IC50 (µM)

1) CS(=O)(=O)Nc1cccc(NCC(O)c2ccc(-c3ccc(Br)cc3)cc2)c1 (stereo unspecified); 0.05
2) Oc1cccc(OCC(O)c2ccc(-c3ccccc3)cc2)c1 (stereo unspecified); 5
3) Oc1cccc(NCC(O)c2ccc(-c3ccccc3)cc2)c1 (stereo unspecified); 0.45

###

target: Glutamate NMDA receptor (Rattus norvegicus) (UniProt P35439+Q00959+Q00960+Q00961+Q62645+Q8VHN2+Q9R1M7); assay: Negative allosteric modulator activity at NMDA receptor in Wistar rat hippocampal CA1 neuronal membrane assessed as inhibition of NMDA and glycine induced current response by measuring maximum efficacy by whole-cell patch clamp technique; format: cell membranes; details: Hippocampal CA1 neurone, filed as negative allosteric modulator
Emax: recorded values
READOUT NAME: Emax (%)

1. CS(=O)(=O)Nc1cccc(NCC(O)c2ccc(-c3ccc(Br)cc3)cc2)c1 (stereo unspecified); 78
2. Oc1cccc(OCC(O)c2ccc(-c3ccccc3)cc2)c1 (stereo unspecified); 62
3. CS(=O)(=O)Nc1cccc(NCC(O)c2ccc(-c3ccccc3)cc2)c1 (stereo unspecified); 83
4. Oc1cccc(NCC(O)c2ccc(-c3ccccc3)cc2)c1 (stereo unspecified); 72
5. NC(COc1cccc(O)c1)c1ccc(-c2ccccc2)cc1 (stereo unspecified); 65
6. C[C@H]([C@@H](O)c1ccc(O)cc1)N1CCC(Cc2ccccc2)CC1; 62
